target: HLA-B*58:01; assay: IEDB peptide-MHC binding, purified MHC/direct/fluorescence; filed as Kd, often an IC50 or EC50 that approximates it; bounds were set here for any values at or beyond the usual limits of such assays; details: source organism: Pseudomonas fluorescens
pKd: −log10 of the molar value.
MEASUREMENT_NAME: pKd

Req: State the recorded pKd for this entry: `FVSVYFSDY`
Resp: ≤ 4.70

====

target: HLA-B*58:01; test: IEDB peptide-MHC binding, purified MHC/direct/fluorescence; filed as Kd, often an IC50 or EC50 that approximates it; bounds were set here for any values at or beyond the usual limits of such assays; details: source organism: Vibrio vulnificus
pKd: −log10 of the molar value.
MEASUREMENT_NAME: pKd

Req: State the recorded pKd for this entry: `GSEVPGFCH`
Resp: ≤ 4.70

====

molecular target: HLA-A*03:01; experiment: IEDB peptide-MHC binding, purified MHC/direct/fluorescence; filed as Kd, often an IC50 or EC50 that approximates it; bounds were set here for any values at or beyond the usual limits of such assays; details: source organism: Coxiella burnetii
pKd: −log10 of the molar value.
MEASUREMENT_NAME: pKd

VPPESVEAA: ≤ 4.70

Req: State the recorded pKd for this entry: `HEGDIVPLF`
Resp: ≤ 4.70

Req: State the recorded pKd for this entry: `IIGLLKIFR`
Resp: 6.39

====

biological target: HLA-A*02:06; assay: IEDB peptide-MHC binding, purified MHC/competitive/radioactivity; filed as Kd, often an IC50 or EC50 that approximates it; bounds were set here for any values at or beyond the usual limits of such assays; conditions: source organism: Mammarenavirus brazilense
MEASUREMENT_NAME: pKd
Entry type: numeric. Quantity: pKd, the -log10 of concentration in molar units.

Req: // lookup pKd | system=HLA-A*02:06 | key= `HSLPRCWLV`
Resp: 6.49

====

molecular target: HLA-A*30:02; test: IEDB peptide-MHC binding, purified MHC/competitive/radioactivity; filed as Kd, often an IC50 or EC50 that approximates it; bounds were set here for any values at or beyond the usual limits of such assays; details: source organism: Dengue virus 2 Jamaica/1409/1983
MEASUREMENT_NAME: pKd
Entry type: numeric. Quantity: pKd, the -log10 of concentration in molar units.

LLSPVRVPNY: 6.51

Attention now turns to another entry.
Req: State the recorded pKd for this entry: `FTIMAAILAY`
Resp: 5.66

====

target: HLA-A*02:01; test: IEDB peptide-MHC binding, purified MHC/competitive/radioactivity; filed as Kd, often an IC50 or EC50 that approximates it; bounds were set here for any values at or beyond the usual limits of such assays; settings: source organism: Human alphaherpesvirus 1 strain 17
MEASUREMENT_NAME: pKd
Entry type: numeric. Quantity: pKd, the -log10 of concentration in molar units.

Req: State the recorded pKd for this entry: `NLLTTPKFT`
Resp: 6.30

====

target: HLA-A*68:01; test: IEDB peptide-MHC binding, purified MHC/competitive/radioactivity; filed as Kd, often an IC50 or EC50 that approximates it; bounds were set here for any values at or beyond the usual limits of such assays; conditions: source organism: Mammarenavirus whitewaterense
MEASUREMENT_NAME: Kd

Req: // lookup Kd | system=HLA-A*68:01 | key= `SFKDQSKYCH`
Resp: ≥ 70.1 µM

====

biological target: HLA-A*02:12; assay: IEDB peptide-MHC binding, purified MHC/competitive/fluorescence; filed as Kd, often an IC50 or EC50 that approximates it; bounds were set here for any values at or beyond the usual limits of such assays; conditions: source organism: Human immunodeficiency virus 1
MEASUREMENT_NAME: Kd (nM)
Give the value, in units of nM, as a plain number.

Req: // lookup Kd | system=HLA-A*02:12 | key= `GLGQYIYET`
Resp: 39

====

target: HLA-A*29:02; test: IEDB peptide-MHC binding, purified MHC/competitive/radioactivity; filed as Kd, often an IC50 or EC50 that approximates it; bounds were set here for any values at or beyond the usual limits of such assays; settings: source organism: Mammarenavirus machupoense
MEASUREMENT_NAME: pKd
Entry type: numeric. Quantity: pKd, the -log10 of concentration in molar units.

Worked examples follow.
CGDPSSLDY: 5.33
PYENLLYKL: 5.63

Attention now turns to another entry.
Req: State the recorded pKd for this entry: `CWFADTNLI`
Resp: 5.89

====

target: HLA-B*57:01; test: IEDB peptide-MHC binding, purified MHC/competitive/fluorescence; filed as Kd, often an IC50 or EC50 that approximates it; bounds were set here for any values at or beyond the usual limits of such assays; conditions: source organism: Orthohantavirus andesense
MEASUREMENT_NAME: Kd

AVEDFLAFF: ≥ 20 µM

Req: // lookup Kd | system=HLA-B*57:01 | key= `DAVEDFLAF`
Resp: ≥ 20 µM

====

biological target: HLA-A*01:01; experiment: IEDB peptide-MHC binding, purified MHC/direct/fluorescence; filed as Kd, often an IC50 or EC50 that approximates it; bounds were set here for any values at or beyond the usual limits of such assays; conditions: source organism: Camelpox virus CMS
pKd: −log10 of the molar value.
MEASUREMENT_NAME: pKd

Req: State the recorded pKd for this entry: `VIARTHTAL`
Resp: ≤ 4.70

====

target: HLA-A*02:11; assay: IEDB peptide-MHC binding, purified MHC/direct/fluorescence; filed as Kd, often an IC50 or EC50 that approximates it; bounds were set here for any values at or beyond the usual limits of such assays; conditions: source organism: Yersinia pestis CA88-4125
MEASUREMENT_NAME: Kd (nM)
Give the value, in units of nM, as a plain number.

Req: State the recorded Kd for this entry: `AMQDPNPEV`
Resp: 5

====

biological target: HLA-A*02:03; experiment: IEDB peptide-MHC binding, purified MHC/competitive/radioactivity; filed as Kd, often an IC50 or EC50 that approximates it; bounds were set here for any values at or beyond the usual limits of such assays; conditions: source organism: Homo sapiens
The reader will find reported Kd values listed item by item below.
Give the value, in units of nM, as a plain number.

FMECNLNEL: 1.1
GLKSKTHAVL: 1.05

Attention now turns to another entry.
Req: State the recorded Kd for this entry: `ALPHAILRL`
Resp: 7.87

====

target: HLA-B*08:01; assay: IEDB peptide-MHC binding, purified MHC/competitive/fluorescence; filed as Kd, often an IC50 or EC50 that approximates it; bounds were set here for any values at or beyond the usual limits of such assays; details: source organism: Influenza A virus (A/Wyoming/3/2003-X-147(H3N2))
MEASUREMENT_NAME: pKd
Entry type: numeric. Quantity: pKd, the -log10 of concentration in molar units.

Req: // lookup pKd | system=HLA-B*08:01 | key= `TLHFKQYEF`
Resp: 6.36

====

molecular target: HLA-B*44:02; assay: IEDB peptide-MHC binding, purified MHC/direct/fluorescence; filed as Kd, often an IC50 or EC50 that approximates it; bounds were set here for any values at or beyond the usual limits of such assays; conditions: source organism: Shigella dysenteriae
MEASUREMENT_NAME: pKd
Entry type: numeric. Quantity: pKd, the -log10 of concentration in molar units.

Req: State the recorded pKd for this entry: `AEMRETHWL`
Resp: 5.70

====

molecular target: HLA-A*11:01; test: IEDB peptide-MHC binding, purified MHC/direct/fluorescence; filed as Kd, often an IC50 or EC50 that approximates it; bounds were set here for any values at or beyond the usual limits of such assays; settings: source organism: Haemophilus influenzae
MEASUREMENT_NAME: pKd
Entry type: numeric. Quantity: pKd, the -log10 of concentration in molar units.

Req: State the recorded pKd for this entry: `MTMRRRLFK`
Resp: 7.85

====

target: HLA-B*73:01; assay: IEDB peptide-MHC binding, purified MHC/competitive/fluorescence; filed as Kd, often an IC50 or EC50 that approximates it; bounds were set here for any values at or beyond the usual limits of such assays; details: source organism: Pseudomonas putida
MEASUREMENT_NAME: Kd

Req: State the recorded Kd for this entry: `RVWRGEQGK`
Resp: ≥ 20 µM

====

target: HLA-A*69:01; experiment: IEDB peptide-MHC binding, purified MHC/direct/fluorescence; filed as Kd, often an IC50 or EC50 that approximates it; bounds were set here for any values at or beyond the usual limits of such assays; details: source organism: Giardia lamblia ATCC 50803
The reader will find reported Kd values listed item by item below.

SHSIPNGLL: ≥ 20 µM

Attention now turns to another entry.
Req: State the recorded Kd for this entry: `VLLISDPGL`
Resp: ≥ 20 µM

====

biological target: HLA-A*26:02; test: IEDB peptide-MHC binding, purified MHC/competitive/fluorescence; filed as Kd, often an IC50 or EC50 that approximates it; bounds were set here for any values at or beyond the usual limits of such assays; details: source organism: Brucella abortus S19
pKd: −log10 of the molar value.
MEASUREMENT_NAME: pKd

Req: State the recorded pKd for this entry: `RFRCVGPAP`
Resp: ≤ 4.70

Reference source for all entries: the Immune Epitope Database (IEDB)
